# Study System: T1, CD27 expressed on the cell surface (HT1080_CD27 cells) (human, UniProt P26842 20-260)
# T1 construct: whole, on cells; also called K562_CD27
# T1 sequence (looked up): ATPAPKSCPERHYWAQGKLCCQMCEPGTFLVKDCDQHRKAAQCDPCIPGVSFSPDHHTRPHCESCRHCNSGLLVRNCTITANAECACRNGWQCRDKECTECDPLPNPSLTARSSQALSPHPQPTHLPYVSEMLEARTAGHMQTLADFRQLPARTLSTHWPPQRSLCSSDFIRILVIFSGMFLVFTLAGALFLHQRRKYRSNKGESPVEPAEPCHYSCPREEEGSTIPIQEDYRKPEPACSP
# Assay Protocol: cellular binding assay, HT1080_CD27 cells; note: test concentration or dose not given here
Quantity: Cellular binding assay [RFU] (RFU)

{"Binder": "P018.S.07.A.E05 (antibody, V domains shown, V regions on human Ig constant parts; also called AB27_126) VH: QSLEESGGRLVTPGGSLTLTCTVSGIDLSSYAMIWVRQAPGKGLEWIGYIYGGSGSTWYASWAKGRFTISKTSSTTVDLKMTSLTTEDTATYFCARAYDSGYIGNSFYIFDPWGPGTLVTVSS VL: DIVMTQTPASVSATVGGTVTIKCQASQSISSRLAWYQQKPGQPPKLLIYSASTLASGVSSRFRGSGSGTEFTLTISDLESADGATYYCAGYGGLGITAFGGGTEVVVK", "Reading": 317}
{"Binder": "P018.S.10.A.G05 (antibody, V domains shown, V regions on human Ig constant parts; also called AB27_183) VH: QSVEESGGRLVTPGTPLTLTCTVSGFSLNNAHMCWVRQAPGKGLEWIGIIGASGSTYYASWAKGRFTISKTSTTVDLKMTSLTTEDTATYFCGRTDVGYTTANLWGQGTLVTVSS VL: DVVMTQTPASVSAAVGGTVTIKCQASQTISSYLSWYQQKPGQPPKRLIYSASTLASGVSSRFKGSGSGTQFTLTISDLESADAATYYCQAYDTTSGTDLWAFGGGTEVVVK", "Reading": 408}
